Tested on: SKBR3 cells
PROCEDURE_DETAILS: Growth inhibitory and cytotoxicity assay in SKBR3 cells under normoxia
Assay type: cell-based, human
EXPERIMENTAL_SETUP: SKBR3, 72 hrs, normal oxygen conditions
ASSAY_METRIC: cytotoxicity measured by trypan blue exclusion

O=CC[C@@H](O)[C@H](O)[C@H](O)CO    toxic
O=C[C@@H](F)[C@@H](O)[C@H](O)[C@H](O)CO    toxic

These measurements were taken from patent US8242167B2.
